Where do these numbers come from? They come from paper PMC9764288.

Biological target: P450pra + F76N (Amycolatopsis orientalis, UniProt W5VH56, F76N/I95T/Q127R/A180V/L236I/A265N)
Construct: N-terminal polyhistidine tag, expressed in E. coli
Protocol: Absorbance spectra (300–800 nm) of P450 variants were measured on a Cary 60 UV–vis spectrophotometer at 25 °C using 3–8 μM protein in buffer A. The pyridine hemochromogen method was used to quantify CYP105AS1 P450 variant heme concentrations and to determine an extinction coefficient at the heme Soret maximum for each variant.[89] […] The overall absorbance change (ΔAmax) was calculated as Apeak (absorbance maximum) minus Atrough (absorbance minimum) and plotted against the substrate concentration. […]
measured.quantity: Kd (µM)
Give the value, in units of µM, as a plain number.

The molecule CC[C@H](C)C(=O)O[C@H]1CCC=C2C=C[C@H](C)[C@H](CC[C@@H]3C[C@@H](O)CC(=O)O3)[C@H]21 [compactin, compactin (mevastatin)] showed Kd equal to 4.81

---

Biological target: P450pra + P80G (Amycolatopsis orientalis, UniProt W5VH56, P80G/I95T/Q127R/A180V/L236I/A265N)
Construct: N-terminal polyhistidine tag, expressed in E. coli
measured.quantity: Kd (µM)
Give the value, in units of µM, as a plain number.

The molecule CC[C@H](C)C(=O)O[C@H]1CCC=C2C=C[C@H](C)[C@H](CC[C@@H]3C[C@@H](O)CC(=O)O3)[C@H]21 [compactin, compactin (mevastatin)] showed Kd equal to 5.84

---

Biological target: P450pra +V180M (Amycolatopsis orientalis, UniProt W5VH56, I95T/Q127R/A180M/L236I/A265N)
Construct: N-terminal polyhistidine tag, expressed in E. coli
measured.quantity: Kd (nM)
Give the value, in units of nM, as a plain number.

The compound CC[C@H](C)C(=O)O[C@H]1CCC=C2C=C[C@H](C)[C@H](CC[C@@H]3C[C@@H](O)CC(=O)O3)[C@H]21 showed Kd equal to 1340

---

Molecular target: P450pra + T286I (Amycolatopsis orientalis, UniProt W5VH56, I95T/Q127R/A180V/L236I/A265N/T286I)
Construct: N-terminal polyhistidine tag, expressed in E. coli
measured.quantity: Kd (µM)
Give the value, in units of µM, as a plain number.

The compound CC[C@H](C)C(=O)O[C@H]1CCC=C2C=C[C@H](C)[C@H](CC[C@@H]3C[C@@H](O)CC(=O)O3)[C@H]21 [compactin, compactin (mevastatin)] showed Kd equal to 4.93

---

Biological target: CYP105AS1 (Amycolatopsis orientalis, UniProt W5VH56)
Sequence (W5VH56 1-401): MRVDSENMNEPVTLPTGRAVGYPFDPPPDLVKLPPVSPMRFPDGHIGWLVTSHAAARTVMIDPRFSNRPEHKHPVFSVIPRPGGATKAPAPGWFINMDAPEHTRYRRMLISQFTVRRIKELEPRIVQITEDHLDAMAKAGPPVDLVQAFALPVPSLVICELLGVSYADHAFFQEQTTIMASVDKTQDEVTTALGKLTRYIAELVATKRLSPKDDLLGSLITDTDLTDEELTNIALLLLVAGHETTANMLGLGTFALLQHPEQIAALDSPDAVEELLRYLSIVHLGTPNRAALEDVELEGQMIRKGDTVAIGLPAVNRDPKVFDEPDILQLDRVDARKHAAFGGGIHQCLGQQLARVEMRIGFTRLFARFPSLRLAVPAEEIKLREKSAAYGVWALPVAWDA
measured.quantity: pKd
Reminder that pKd is minus the log10 of a molar concentration.

The compound CC[C@H](C)C(=O)O[C@H]1CCC=C2C=C[C@H](C)[C@H](CC[C@@H]3C[C@@H](O)CC(=O)O3)[C@H]21 [compactin, compactin (mevastatin)] showed pKd equal to 4.52

---

Biological target: P450pra (Amycolatopsis orientalis, UniProt W5VH56, I95T/Q127R/A180V/L236I/A265N)
Construct: N-terminal polyhistidine tag, expressed in E. coli; directed evolution variant
Description: Absorbance spectra (300–800 nm) of P450 variants were measured on a Cary 60 UV–vis spectrophotometer at 25 °C using 3–8 μM protein in buffer A. The pyridine hemochromogen method was used to quantify CYP105AS1 P450 variant heme concentrations and to determine an extinction coefficient at the heme Soret maximum for each variant.[89] […] The overall absorbance change (ΔAmax) was calculated as Apeak (absorbance maximum) minus Atrough (absorbance minimum) and plotted against the substrate concentration. […]
measured.quantity: Kd (nM)
Give the value, in units of nM, as a plain number.

The compound CC[C@H](C)C(=O)O[C@H]1CCC=C2C=C[C@H](C)[C@H](CC[C@@H]3C[C@@H](O)CC(=O)O3)[C@H]21 showed Kd equal to 770

---

Target: P450pra + T95F (Amycolatopsis orientalis, UniProt W5VH56, I95F/Q127R/A180V/L236I/A265N)
Construct: N-terminal polyhistidine tag, expressed in E. coli
Type: binding
measured.quantity: Kd (nM)
Give the value, in units of nM, as a plain number.

The molecule CC[C@H](C)C(=O)O[C@H]1CCC=C2C=C[C@H](C)[C@H](CC[C@@H]3C[C@@H](O)CC(=O)O3)[C@H]21 showed Kd equal to 250

---

Target: P450pra + T95F/V180M (=P450pra100) (Amycolatopsis orientalis, UniProt W5VH56, I95F/Q127R/A180M/L236I/A265N)
Construct: N-terminal polyhistidine tag, expressed in E. coli
measured.quantity: Kd (nM)
Give the value, in units of nM, as a plain number.

The compound CC[C@H](C)C(=O)O[C@H]1CCC=C2C=C[C@H](C)[C@H](CC[C@@H]3C[C@@H](O)CC(=O)O3)[C@H]21 [compactin, compactin (mevastatin)] showed Kd equal to 130

---

Molecular target: P450pra + T95W (Amycolatopsis orientalis, UniProt W5VH56, I95W/Q127R/A180V/L236I/A265N)
Construct: N-terminal polyhistidine tag, expressed in E. coli
measured.quantity: Kd
Answers without a unit are incomplete; give the number and then its unit.

Tested system P450pra + T95W (Amycolatopsis orientalis, UniProt W5VH56, I95W/Q127R/A180V/L236I/A265N); Kd recorded for CC[C@H](C)C(=O)O[C@H]1CCC=C2C=C[C@H](C)[C@H](CC[C@@H]3C[C@@H](O)CC(=O)O3)[C@H]21 [compactin, compactin (mevastatin)] was 3.29 µM
